# system.tested: T1, IL-18 receptor alpha chain (UniProt Q13478 19-329, limits assumed)
# T1 construct: also called IL-18Rα; IL-18 Rα
# T1 sequence (looked up): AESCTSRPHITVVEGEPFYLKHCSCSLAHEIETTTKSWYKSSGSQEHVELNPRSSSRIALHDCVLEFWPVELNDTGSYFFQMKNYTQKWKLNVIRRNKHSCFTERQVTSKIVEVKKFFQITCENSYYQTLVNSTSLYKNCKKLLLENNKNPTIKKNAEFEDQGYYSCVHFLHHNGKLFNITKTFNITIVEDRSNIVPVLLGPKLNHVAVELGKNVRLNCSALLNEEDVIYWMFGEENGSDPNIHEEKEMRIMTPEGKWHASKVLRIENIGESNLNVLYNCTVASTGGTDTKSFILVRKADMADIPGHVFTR
# assay.procedure: SPR (BIAcore)
pKd: −log10 of the molar value.
Label scheme for pKd: lower than 6 is FALSE, 6 and above is TRUE.

human IL-18 C38S, C68S, L144C (SEQ ID NO:9) (ligand, Non-pegylated substitution mutant; also called IL-18 C144 (C38S, C68S, L144C)) YFGKLESKLSVIRNLNDQVLFIDQGNRPLFEDMTDSDSRDNAPRTIFIISMYKDSQPRGMAVTISVKSEKISTLSCENKIISFKEMNPPDNIKDTKSDIIFFQRSVPGHDNKMQFESSSYEGYFLACEKERDLFKLILKKEDECGDRSIMFTVQNED	TRUE
human IL-18 C38S, C68D, L144C (SEQ ID NO:7) monopegylated at C144 with 40K PEG (ligand, methoxy polyethylene glycol maleimide, 40,000 Da, on Cys 144, also called IL-18 C144PEG40K) YFGKLESKLSVIRNLNDQVLFIDQGNRPLFEDMTDSDSRDNAPRTIFIISMYKDSQPRGMAVTISVKDEKISTLSCENKIISFKEMNPPDNIKDTKSDIIFFQRSVPGHDNKMQFESSSYEGYFLACEKERDLFKLILKKEDECGDRSIMFTVQNED	FALSE
human IL-18 C38S, C68D, D157C (SEQ ID NO:8) (ligand, Non-pegylated substitution mutant; also called IL-18 C157 (C38S, C68D, D157C)) YFGKLESKLSVIRNLNDQVLFIDQGNRPLFEDMTDSDSRDNAPRTIFIISMYKDSQPRGMAVTISVKDEKISTLSCENKIISFKEMNPPDNIKDTKSDIIFFQRSVPGHDNKMQFESSSYEGYFLACEKERDLFKLILKKEDELGDRSIMFTVQNEC	TRUE
human IL-18 C38S, C68S, D157C (SEQ ID NO:10) (ligand, Non-pegylated substitution mutant; also called IL-18 C157 (C38S, C68S, D157C)) YFGKLESKLSVIRNLNDQVLFIDQGNRPLFEDMTDSDSRDNAPRTIFIISMYKDSQPRGMAVTISVKSEKISTLSCENKIISFKEMNPPDNIKDTKSDIIFFQRSVPGHDNKMQFESSSYEGYFLACEKERDLFKLILKKEDELGDRSIMFTVQNEC	TRUE
human IL-18 C38S, C68S, L144C (SEQ ID NO:9) monopegylated at C144 with 20K PEG (ligand, methoxy polyethylene glycol maleimide, 20,000 Da, on Cys 144, also called IL-18 C144PEG20K) YFGKLESKLSVIRNLNDQVLFIDQGNRPLFEDMTDSDSRDNAPRTIFIISMYKDSQPRGMAVTISVKSEKISTLSCENKIISFKEMNPPDNIKDTKSDIIFFQRSVPGHDNKMQFESSSYEGYFLACEKERDLFKLILKKEDECGDRSIMFTVQNED	FALSE
human IL-18 C38S, C68D, L144C (SEQ ID NO:7) monopegylated at C144 with 30K PEG (ligand, methoxy polyethylene glycol maleimide, 30,000 Da, on Cys 144, also called IL-18 C144PEG30K) YFGKLESKLSVIRNLNDQVLFIDQGNRPLFEDMTDSDSRDNAPRTIFIISMYKDSQPRGMAVTISVKDEKISTLSCENKIISFKEMNPPDNIKDTKSDIIFFQRSVPGHDNKMQFESSSYEGYFLACEKERDLFKLILKKEDECGDRSIMFTVQNED	FALSE
human IL-18 C38S, C68D, D157C (SEQ ID NO:8) monopegylated at C157 with 20K PEG (ligand, methoxy polyethylene glycol maleimide, 20,000 Da, on Cys 157, also called IL-18 C157PEG20K; 157C-20K) YFGKLESKLSVIRNLNDQVLFIDQGNRPLFEDMTDSDSRDNAPRTIFIISMYKDSQPRGMAVTISVKDEKISTLSCENKIISFKEMNPPDNIKDTKSDIIFFQRSVPGHDNKMQFESSSYEGYFLACEKERDLFKLILKKEDELGDRSIMFTVQNEC	FALSE
human IL-18 C38S, C68D, D157C (SEQ ID NO:8) monopegylated at C157 with 30K PEG (ligand, methoxy polyethylene glycol maleimide, 30,000 Da, on Cys 157, also called IL-18 C157PEG30K; 157C-30K) YFGKLESKLSVIRNLNDQVLFIDQGNRPLFEDMTDSDSRDNAPRTIFIISMYKDSQPRGMAVTISVKDEKISTLSCENKIISFKEMNPPDNIKDTKSDIIFFQRSVPGHDNKMQFESSSYEGYFLACEKERDLFKLILKKEDELGDRSIMFTVQNEC	FALSE
human IL-18 C38S, C68S, L144C (SEQ ID NO:9) monopegylated at C144 with 30K PEG (ligand, methoxy polyethylene glycol maleimide, 30,000 Da, on Cys 144, also called IL-18 C144PEG30K) YFGKLESKLSVIRNLNDQVLFIDQGNRPLFEDMTDSDSRDNAPRTIFIISMYKDSQPRGMAVTISVKSEKISTLSCENKIISFKEMNPPDNIKDTKSDIIFFQRSVPGHDNKMQFESSSYEGYFLACEKERDLFKLILKKEDECGDRSIMFTVQNED	FALSE
human IL-18 C38S, C68D, L144C (SEQ ID NO:7) (ligand, Non-pegylated substitution mutant; also called IL-18 C144 (C38S, C68D, L144C)) YFGKLESKLSVIRNLNDQVLFIDQGNRPLFEDMTDSDSRDNAPRTIFIISMYKDSQPRGMAVTISVKDEKISTLSCENKIISFKEMNPPDNIKDTKSDIIFFQRSVPGHDNKMQFESSSYEGYFLACEKERDLFKLILKKEDECGDRSIMFTVQNED	TRUE
human IL-18 C38S, C68D, L144C (SEQ ID NO:7) monopegylated at C144 with 20K PEG (ligand, methoxy polyethylene glycol maleimide, 20,000 Da, on Cys 144, also called IL-18 C144PEG20K) YFGKLESKLSVIRNLNDQVLFIDQGNRPLFEDMTDSDSRDNAPRTIFIISMYKDSQPRGMAVTISVKDEKISTLSCENKIISFKEMNPPDNIKDTKSDIIFFQRSVPGHDNKMQFESSSYEGYFLACEKERDLFKLILKKEDECGDRSIMFTVQNED	FALSE
human IL-18 C38S, C68D, D157C (SEQ ID NO:8) monopegylated at C157 with 40K PEG (ligand, methoxy polyethylene glycol maleimide, 40,000 Da, on Cys 157, also called IL-18 C157PEG40K; 157C-40K) YFGKLESKLSVIRNLNDQVLFIDQGNRPLFEDMTDSDSRDNAPRTIFIISMYKDSQPRGMAVTISVKDEKISTLSCENKIISFKEMNPPDNIKDTKSDIIFFQRSVPGHDNKMQFESSSYEGYFLACEKERDLFKLILKKEDELGDRSIMFTVQNEC	FALSE
human IL-18 C38S, C68S, D157C (SEQ ID NO:10) monopegylated at C157 with 20K PEG (ligand, methoxy polyethylene glycol maleimide, 20,000 Da, on Cys 157, also called IL-18 C157PEG20K; 157C-20K) YFGKLESKLSVIRNLNDQVLFIDQGNRPLFEDMTDSDSRDNAPRTIFIISMYKDSQPRGMAVTISVKSEKISTLSCENKIISFKEMNPPDNIKDTKSDIIFFQRSVPGHDNKMQFESSSYEGYFLACEKERDLFKLILKKEDELGDRSIMFTVQNEC	FALSE
human IL-18 C38S, C68S, D157C (SEQ ID NO:10) monopegylated at C157 with 30K PEG (ligand, methoxy polyethylene glycol maleimide, 30,000 Da, on Cys 157, also called IL-18 C157PEG30K; 157C-30K) YFGKLESKLSVIRNLNDQVLFIDQGNRPLFEDMTDSDSRDNAPRTIFIISMYKDSQPRGMAVTISVKSEKISTLSCENKIISFKEMNPPDNIKDTKSDIIFFQRSVPGHDNKMQFESSSYEGYFLACEKERDLFKLILKKEDELGDRSIMFTVQNEC	FALSE
